system: EGFR; conditions: concentration: 1 μM, replicates: in singlicate; n = 1;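 also: KINOMEscan kinase panel screen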
Binary call on %Inh: t from 30% upward, f beneath that.

Recorded results for 6 compounds are shown here.
- Compound: "Cl.c1ccc(Cn2ncc3cc(Nc4ncnc5ccccc45)ccc32)cc1"
  Group Label: "t"
- Compound: "COc1cc2ncnc(Nc3ccc(OCc4ccccc4Br)c(Cl)c3)c2cc1OC.Cl"
  Group Label: "t"
- Compound: "c1ccc(-c2ccc3c(-c4ccnc(Nc5ccc6c(c5)OCCO6)n4)cnn3n2)cc1"
  Group Label: "f"
- Compound: "O=c1cc(N2CCOCC2)nc2n(Cc3cccc(Cl)c3)ccn12"
  Group Label: "f"
- Compound: "O=C(Nc1ccccc1F)NC1CCN(c2ccnc(Nc3ccc(F)cc3)n2)C1 (stereo not shown)"
  Group Label: "f"
- Compound: "Clc1ccc(-c2cc(-c3c[nH]nc3-c3ccccn3)ccn2)cc1"
  Group Label: "f"

Does Cn1ccc2ncnc(Nc3ccc(Oc4cccc(Cl)c4)c(Cl)c3)c21 have a reported %Inh of at least 30%?
t

Does FC(F)(F)c1ccc(-c2nn3ncccc3c2-c2ccnc(Nc3cccc(C(F)(F)F)c3)n2)cc1 have a reported %Inh of at least 30%?
f

Does Fc1ccc(Nc2nccc(-c3c(-c4ccc(Cl)cc4)nn4ncccc34)n2)cc1F have a reported %Inh of at least 30%?
f

Does Oc1ccc2ncnc(Nc3ccc(OCc4ccccc4)cc3)c2c1 have a reported %Inh of at least 30%?
t

Does Cl.O=S(=O)(c1cccc(F)c1)c1ccc(Nc2ncnc3cc(Br)sc23)cc1Cl have a reported %Inh of at least 30%?
t

* * *

tested on: PAK1; settings: concentration: 1 μM, replicates: in singlicate; n = 1
Binary call on %Inh: criterion met from 6% upward, criterion not met beneath that.

Does FC(F)(F)c1ccc(-c2cc(-c3c[nH]nc3-c3ccccn3)ccn2)cc1 have a reported %Inh of at least 6%?
criterion met

Does COc1ccc(Nc2nccc(N3CCC(NC(=O)Nc4ccc5c(c4)OCO5)C3)n2)cc1 (stereo not drawn) have a reported %Inh of at least 6%?
criterion not met

Does COc1cc2c(Nc3cccc(NC(=O)c4ccccc4)c3)ncnc2cc1OCCCN1CCOCC1 have a reported %Inh of at least 6%?
criterion not met

Does C[C@H]1CC[C@@H](C(=O)Nc2ccccc2)CN1c1cc(-c2ccc3c(N)n[nH]c3c2)nc(N)n1 have a reported %Inh of at least 6%?
criterion not met

Does FC(F)(F)c1ccc(-c2nn3ncccc3c2-c2ccnc(Nc3cccc(C(F)(F)F)c3)n2)cc1 have a reported %Inh of at least 6%?
criterion met

Does COc1ccc(NC(=O)c2ccc(-c3cc(-c4nnc(C)o4)ccc3C)cc2)cc1 have a reported %Inh of at least 6%?
criterion not met

Does CCn1c(-c2ccncc2)nc2cnccc21 have a reported %Inh of at least 6%?
criterion not met

Does Clc1cc(Nc2ncnc3cc[nH]c23)ccc1OCc1ccccn1 have a reported %Inh of at least 6%?
criterion met

* * *

The reader will find reported %Inh values listed item by item below.
test system: PRKCQ; settings: concentration: 1 μM, replicates: in singlicate; n = 1
Kindly provide the numeric value in % only, without the unit symbol.

Some entries whose results are on file:
- Query Smiles: "N#Cc1ccc(Oc2ccc(Nc3ncnc4cc[nH]c34)cc2Cl)cc1"
  Unit: "%"
  Readout Number: 19
- Query Smiles: "CCc1nc(-c2cccc(C)c2)c(-c2ccnc(NC(=O)c3ccccc3)c2)s1"
  Unit: "%"
  Readout Number: 0
- Query Smiles: "CS(=O)(=O)CCNCc1ccc(-c2ccc3ncnc(Nc4ccc(OCc5ccccc5)c(Cl)c4)c3c2)o1.Cl"
  Unit: "%"
  Readout Number: 20
- Query Smiles: "O=C(Nc1n[nH]c2nc(-c3ccco3)c(Br)cc12)c1ccc(CN2CCCC2)cc1.O=C(O)[C@H](O)[C@@H](O)C(=O)O"
  Unit: "%"
  Readout Number: 0
- Query Smiles: "Fc1cccc(COc2ccc(Nc3ncnc4cc[nH]c34)cc2Cl)c1"
  Unit: "%"
  Readout Number: 10
- Query Smiles: "C[C@H]1CC[C@@H](C(=O)Nc2ccccc2)CN1c1cc(-c2ccc3c(N)n[nH]c3c2)nc(N)n1"
  Unit: "%"
  Readout Number: 4
- Query Smiles: "Cl.Cl.c1ccc(-c2cc3ccncc3cc2OC2CCNCC2)cc1"
  Unit: "%"
  Readout Number: 21
- Query Smiles: "Cl.O=S(=O)(c1cccc(F)c1)c1ccc(Nc2ncnc3cc(Br)sc23)cc1Cl"
  Unit: "%"
  Readout Number: 0

// Input: Cn1ccc2ncnc(Nc3ccc(Oc4cccc(Cl)c4)c(Cl)c3)c21 . Output its %Inh only.
60

// Input: COC(=O)c1c(-c2ccccc2)c2cc(Cl)ccc2c(=O)n1Cc1ccc(S(C)(=O)=O)cc1 . Output its %Inh only.
19

// Input: Cc1ccc(NC(=O)c2cccc(C#N)c2)cc1-c1ccc(C(=O)Nc2ccncc2)cc1 . Output its %Inh only.
0

// Input: FC(F)(F)c1ccc(-c2cc(-c3c[nH]nc3-c3ccccn3)ccn2)cc1 . Output its %Inh only.
16

// Input: CSc1ccc(NC2=C(c3ccccc3Cl)C(=O)NC2=O)cc1 . Output its %Inh only.
0
